Consider the following sequences; for each one, report its PBM binding z-score.
- Test system: RARg:RXRa (NR concentration 270 nM, RXRa partner concentration 90 nM)
- assay: PBM binding z-score (relative to random genomic background probes); higher = stronger binding; sequences stand for … in GC…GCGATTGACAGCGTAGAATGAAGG
Response field accepts a number only; no unit should be typed.

Look at this sequence and give its reported PBM binding z-score. CCTACTGGGCCACAGGTCATTGATTCCAATGCTC
2.14

Look at this sequence and give its reported PBM binding z-score. CCTACTGGGCCAAAGATCATTGATTCCAATGCTC
0.0876

Look at this sequence and give its reported PBM binding z-score. CAAACTAGGTCAAGAGGACAAAGTCCGCTTCCCG
4.36

Look at this sequence and give its reported PBM binding z-score. CTCGAAAGGTCGGTTGAGGCGAGTATACGGATAA
2.36

Look at this sequence and give its reported PBM binding z-score. CAAACTAGGTCAGGAGGTCAAAGTCCGCTTCCCG
6.99

Look at this sequence and give its reported PBM binding z-score. CCTACTGGGCCAAAAAGGTCATTCATGCCGATAA
5.14

###

Consider the following sequences; for each one, report its PBM binding z-score.
- Tested on: PPARg:RXRa IVT, anti-PPARg (NR concentration 270 nM, RXRa partner concentration 90 nM)
- assay: PBM binding z-score (relative to random genomic background probes); higher = stronger binding; sequences stand for … in GC…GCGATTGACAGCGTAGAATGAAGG
Response field accepts a number only; no unit should be typed.

Look at this sequence and give its reported PBM binding z-score. CGTCCAAGGTCATAGGAGGTCAGTGCAGACAGAT
4.57

Look at this sequence and give its reported PBM binding z-score. GTACCAAGGTGAATGGGTCGTTGATGAGTAGGCG
2.44

Look at this sequence and give its reported PBM binding z-score. CCGACTGGGGCATCAGGTTACCATAAGCCAGCCC
3.84

Look at this sequence and give its reported PBM binding z-score. ATCTCTTGGTAAGACTCAGTTCAGTGAAGAACGC
0.216

Look at this sequence and give its reported PBM binding z-score. AATACAGGGTCACTAGGCCAGAGGAGGTACGAAT
5.89

Look at this sequence and give its reported PBM binding z-score. TCTCGGAGGACTCGAAGGTCAGAGCTTTCCAGAG
0.0197

Look at this sequence and give its reported PBM binding z-score. CCTATTAGTTGTCCATAAGGGCAACCGAAGCTCG
0.804

Look at this sequence and give its reported PBM binding z-score. CCTCAAAGTTCAAGGTAACGTAACAGAAAGCAGC
0.928

Look at this sequence and give its reported PBM binding z-score. ATCTCTAGGTAAGACTCTGTTCAGTGAAGAACGC
1.19

Look at this sequence and give its reported PBM binding z-score. AGAATAAGGTTAAGATCAGGGAAACAGAATACAT
1.76

Look at this sequence and give its reported PBM binding z-score. TCATATAGGGAAAAGGTGAAAGTCGGTGTGGTAA
3.56

Look at this sequence and give its reported PBM binding z-score. AGAATGAGGTTATACGTAGATCATGGAAGAAAGT
2.6

###

- System: RXRa homodimer (NR concentration 180 nM)
- assay: PBM binding z-score (relative to random genomic background probes); higher = stronger binding; sequences stand for … in GC…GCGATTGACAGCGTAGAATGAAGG
assay-metric: PBM binding z-score

Look at this sequence and give its reported PBM binding z-score. AGAATGAAGTTAAGATCAGGGAAACAGAATACAT
0.166

Look at this sequence and give its reported PBM binding z-score. ACAGACAGGTGAGGAAGGTAACTCAGGCTATCAT
0.267

Look at this sequence and give its reported PBM binding z-score. CCTATTAGTTCACCATAAGGGCAACCGAAGCTCG
1.69

Look at this sequence and give its reported PBM binding z-score. CGTCGAAGGTCAAGGTCAGTGAAAGAGACTCGAA
6.08

Look at this sequence and give its reported PBM binding z-score. TCGAGTAGGTTAGTCGGGGTATTCAGCCAACATA
-0.0938

Look at this sequence and give its reported PBM binding z-score. ACAGACAGGTGATGAAGGTAACTCACGCTATCAT
0.483

Look at this sequence and give its reported PBM binding z-score. ACTATTAGTTGACTTATGGCAACCGATACGACGC
0.823

Look at this sequence and give its reported PBM binding z-score. CCTCGGAGAACAGAAGGTCAGAGCTGTCCGCTTT
2.01

Look at this sequence and give its reported PBM binding z-score. GCTGCTAGGTCAGGTTGGTAAGCTAACGGGTACG
1.02

Look at this sequence and give its reported PBM binding z-score. TCTGCTAGGTCAACGATGGTCCGCTAATCTGCTA
2.3

Look at this sequence and give its reported PBM binding z-score. CATACAGGGTCAGCTATGCCAGAGTAGGGACGGC
4.14

Look at this sequence and give its reported PBM binding z-score. CACGAAAGGTCGGTTGAGGTGAGTATACGGATAA
2.36
